Target: T1, TP-28 (also: biotinylated, site not given here)
T1 construct: also called TP-28 peptide
T1 peptide: CGEDLIIKGISVHIS
Assay: indirect ELISA, biotinylated 15-mer on streptavidin plate, hybridoma supernatant
Where no end group is shown, it is not given here.
result_type: binding result

ACI-7062-406E3-Ab1 (antibody, IgG2a, V domains shown, also called 406E3D5; clone 5) VH: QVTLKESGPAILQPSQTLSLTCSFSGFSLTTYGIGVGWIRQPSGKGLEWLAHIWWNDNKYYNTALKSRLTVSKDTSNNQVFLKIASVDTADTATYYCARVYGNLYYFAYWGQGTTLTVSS VL: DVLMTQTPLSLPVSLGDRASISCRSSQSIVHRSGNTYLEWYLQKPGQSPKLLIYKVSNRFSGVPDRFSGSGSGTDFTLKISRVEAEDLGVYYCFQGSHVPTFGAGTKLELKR = no binding
ACI-7062-412A7-Ab1 (antibody, IgG2b, V domains shown, also called 412A7B7; clone 9) VH: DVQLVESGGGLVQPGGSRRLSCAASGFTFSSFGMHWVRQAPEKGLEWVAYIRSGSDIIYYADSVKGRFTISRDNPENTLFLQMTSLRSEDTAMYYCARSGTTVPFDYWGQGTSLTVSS VL: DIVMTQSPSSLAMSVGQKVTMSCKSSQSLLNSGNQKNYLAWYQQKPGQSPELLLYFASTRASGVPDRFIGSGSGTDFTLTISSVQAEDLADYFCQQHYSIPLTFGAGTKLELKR = no binding
ACI-7062-416A11-Ab1 (antibody, IgG2a, V domains shown, also called 416A11B3; clone 18) VH: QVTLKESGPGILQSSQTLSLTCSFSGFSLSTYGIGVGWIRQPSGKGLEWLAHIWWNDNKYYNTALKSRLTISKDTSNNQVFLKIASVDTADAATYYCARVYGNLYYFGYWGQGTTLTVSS VL: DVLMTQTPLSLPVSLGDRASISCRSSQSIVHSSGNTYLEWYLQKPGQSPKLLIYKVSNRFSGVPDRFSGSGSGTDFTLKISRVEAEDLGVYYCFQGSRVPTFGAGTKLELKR = no binding
